B1: tRNA (parent)
chain: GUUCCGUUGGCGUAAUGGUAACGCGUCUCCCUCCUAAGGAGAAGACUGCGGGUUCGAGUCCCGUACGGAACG

- Variants of: B1
- MEASUREMENT DESCRIPTION: yeast fitness relative to wild type (ratio to wild type); higher = fitter; tRNA-Arg(CCU), competitive growth, 37 C, YPD
This sample holds only a part of the variants without activity.
Answer NOT MET if yeast fitness is under 0.6, and MET if it is 0.6 or more.

INSERT INTO assay_data (mutation_descriptor, class_assignment) VALUES
  ('C29G C46G G48C', 'NOT MET'),
  ('U13C G18A A43U', 'MET'),
  ('C5U A21C C31U', 'MET'),
  ('U16C A40C A57G C61U', 'NOT MET'),
  ('C5G U28C C31G C62U', 'NOT MET'),
  ('G9A C24U', 'MET'),
  ('U3A A21C C33U U35A G51C G68C A70U', 'NOT MET'),
  ('U47A C66U', 'MET'),
  ('C29U A36U C61U', 'NOT MET'),
  ('A45G C49G A65U', 'NOT MET'),
  ('A15G C31G U35C A43C A57C G58A', 'NOT MET'),
  ('C29A U35A G56A', 'MET'),
  ('C11U A15G A69C', 'MET'),
  ('C49U C55U C61A', 'NOT MET'),
  ('G12A G52C C55U A65U', 'NOT MET'),
  ('A14C A45U G50C G68C', 'NOT MET'),
  ('C4U C11U A45U A57U', 'MET'),
  ('A42G A43C', 'MET'),
  ('G39A G44A', 'MET'),
  ('C11A', 'MET'),
  ('U7A C11G C60A', 'NOT MET'),
  ('G10A G17A U19A C29U C66U', 'NOT MET'),
  ('C5A C22G C49G G68C', 'NOT MET'),
  ('U13A U53A C61U', 'NOT MET'),
  ('A14C C62G C66U', 'NOT MET'),
  ('U16A C49U', 'MET'),
  ('U2G U7G U26A C49U A65U', 'NOT MET'),
  ('U28A A42G', 'MET'),
  ('C46U A65U', 'MET'),
  ('U7C G41A A42C G50C G52A A70G', 'NOT MET'),
  ('U53C A57C A65U', 'NOT MET'),
  ('C5U G18A C30A G58A G68U', 'NOT MET'),
  ('U28C C33G G38A U64G', 'NOT MET'),
  ('C4A C5A U28G C31G U47C A57U A70G', 'NOT MET'),
  ('A21C G23A G52C A57C', 'NOT MET'),
  ('G63C', 'MET'),
  ('C22G A37C A42G', 'NOT MET'),
  ('A21G U53A U54A', 'NOT MET'),
  ('U19A A20G G56A', 'MET'),
  ('A65G G68A', 'MET'),
  ('C5A U26C', 'MET'),
  ('A37G A40C', 'MET'),
  ('C5G C11U A21G C60A', 'NOT MET'),
  ('G6C C11A A45C C60U', 'NOT MET'),
  ('C22U C24A A42U C49U C61U', 'NOT MET'),
  ('C31A U53A A65U', 'NOT MET'),
  ('C5U U13A C29G C31A G63C', 'NOT MET'),
  ('U8C C49U C61A', 'NOT MET'),
  ('C30G A45G', 'MET'),
  ('C5G A70U', 'MET'),
  ('U28C A42G C55U A70U', 'NOT MET'),
  ('A42C A69C A70U', 'MET'),
  ('U8C C27U C34G', 'NOT MET'),
  ('U2C C11G C22G G56A G63A', 'NOT MET'),
  ('U8C G48A', 'MET'),
  ('U47G C62U A65C', 'NOT MET'),
  ('C5G C11U U47A G68C', 'NOT MET'),
  ('A15U C27U G48C A70U', 'NOT MET'),
  ('U54A C62U G68A', 'NOT MET'),
  ('A14U U16A C31G U47C G68C', 'NOT MET'),
  ('U7G C46U C60A G67A', 'NOT MET'),
  ('C4U U26A G52C', 'NOT MET'),
  ('G23C U26A C29G A36U', 'MET'),
  ('G23A C29U C31U A42G', 'NOT MET'),
  ('U2C U13C C22G U26A C31U A42C G50C U64A C66U G68C', 'NOT MET'),
  ('G10A G23C C29U A36C', 'NOT MET'),
  ('A15G A21U A37C G39C A57U C62U', 'NOT MET'),
  ('C30G C33A C49A', 'MET'),
  ('C33G A57G C61G G63A A65G C66U', 'NOT MET'),
  ('C11U G56A', 'MET'),
  ('A42G G51A C60U G63A', 'NOT MET'),
  ('G18A A45C C55U C61G', 'NOT MET'),
  ('U13C U28G U54A C62A', 'MET'),
  ('A37C G44C G52C G58A', 'NOT MET'),
  ('U3C C5G G38A', 'NOT MET'),
  ('C31U C66A', 'MET'),
  ('C4A C60A', 'MET'),
  ('A21C G48C', 'MET'),
  ('U7G C30A C62A', 'NOT MET'),
  ('A14C C30G', 'NOT MET'),
  ('G18C C33A A36C G51C', 'NOT MET'),
  ('C5G C29G C66A', 'NOT MET'),
  ('C27G C34U G41C G51A', 'NOT MET');
